The reported measurements were obtained from patent US11466286B2.

Tested on: CyPPO13 (Synechococcus sp. JA-3-3Ab PPO, SEQ ID NO: 4) variant F373V, MBP fusion
procedureDetails: PPO inhibition assay
Type: biochemical
studyConditions: herbicide 0-5,000 nM, 50 μM substrate
metric: IC50 (nM)

molecule	u	observedMeasurement
COC(=O)CCNC(=O)C(C)Sc1cc(-n2c(=O)cc(C(F)(F)F)n(C)c2=O)c(F)cc1Cl (stereo not shown)	nM	339
